Values were extracted from patent US20230105982A1.

Target Entity: human Glucagon receptor (GCGR) (human, UniProt P47871 26-477)
Test Method Notes: cell-based or functional assay
Starred links: 1 amine or outer side, 2 acyl side, 3 side chain; linkers in the order of their positions; H or OH if unused. Non-standard residues stand in square brackets, D forms with d. Groups on a side chain read outwards from the residue. No end group written: not given here. *: point of attachment. C16 = C16 fatty acyl group, not further defined; C18 diacid = O=C(O)CCCCCCCCCCCCCCCCC(=O)*; Lys(N3) = [N-]=[N+]=NCCCC[C@H](N)C(=O)O; γGlu = O=C(O)[C@H](CCC(=O)[*:2])N[*:1]; Met(O2) = CS(=O)(=O)CC[C@H](N)C(=O)O; AEEA = NCCOCCOCC(=O)O; Aib = CC(C)(N)C(=O)O

Binder: H[Aib]QGTFTSDYSKYLDARAAK([AEEA-AEEA-γGlu-C20‑OH])DFV[Lys(N3)]WL[Met(O2)]DT-NH2 [PEP31]
Inequality Sign: =
hGCGR_EC50 (nM), cAMP assay: 4.24
--
Binder: H[Aib]QGTFTSDYSKYLDARAAK([AEEA-AEEA-γGlu-C18 diacid])DFV[Lys(N3)]WL[Met(O2)]DT-NH2 [PEP30]
Inequality Sign: =
hGCGR_EC50 (nM), cAMP assay: 2.27
--
Binder: H[dS]QGTFTSDK([γGlu-γGlu-C16])SKYLDERAAQ[Lys(N3)]FVQWLLDT-NH2 [PEP1]
Inequality Sign: =
hGCGR_EC50 (nM), cAMP assay: 0.01
--
Binder: HXEGTFTSDKSKYLDERAAQDFVXWLLDT (D-serine at 2; Lys 10 conjugated to γEγE-C16; Nle(εN3) at 24; C-terminal amide) [PEP75]
Inequality Sign: >
hGCGR_EC50 (nM), cAMP assay: 5
